Species: Rattus norvegicus
Test: DrugMatrix - Regimen: Daily Repeat
Type: toxicity, organism-based, Sprague-Dawley
Parameters: regimen Daily Repeat, gender Male, age 6-8 weeks
Settings: in vivo, iv, 0 mg/kg, 72 h, tissue Plasma, dose level Control, time 3 day, vehicle 100 % SALINE
Parameter: ASPARTATE AMINOTRANSFERASE

Molecule	Reported Measurement
CC[C@]1(O)C[C@@H]2CN(CCc3c([nH]c4ccccc34)[C@@](C(=O)OC)(c3cc4c(cc3OC)N(C)[C@H]3[C@@](O)(C(=O)OC)[C@H](OC(C)=O)[C@]5(CC)C=CCN6CC[C@]43[C@@H]65)C2)C1	101.5 u/L
CCc1c2c(nc3ccc(OC(=O)N4CCC(N5CCCCC5)CC4)cc13)-c1cc3c(c(=O)n1C2)COC(=O)[C@]3(O)CC	85.5 u/L
COc1cccc2c1C(=O)c1c(O)c3c(c(O)c1C2=O)C[C@@](O)(C(=O)CO)C[C@@H]3O[C@H]1C[C@H](N)[C@@H](O)[C@H](C)O1 [EPIRUBICIN]	85.5 u/L
CC(=O)N[C@@H]1[C@H](Oc2c3cc4cc2Oc2ccc(cc2Cl)[C@@H](O[C@@H]2O[C@@H](CO)[C@@H](O)[C@H](O)[C@@H]2NC(C)=O)[C@@H]2NC(=O)[C@H](NC(=O)[C@@H]4NC(=O)[C@H]4NC(=O)[C@@H](Cc5ccc(c(Cl)c5)O3)NC(=O)[C@H](N)c3ccc(O)c(c3)Oc3cc(O)cc4c3)c3ccc(O)c(c3)-c3c(O[C@H]4O[C@H](CO)[C@@H](O)[C@@H](O)[C@@H]4O)cc(O)cc3[C@@H](C(=O)O)NC2=O)O[C@@H](CO)[C@@H](O)[C@@H]1O	92.5 u/L
CCC1=C[C@@H]2CN(C1)Cc1c([nH]c3ccccc13)[C@@](C(=O)OC)(c1cc3c(cc1OC)N(C)[C@H]1[C@@](O)(C(=O)OC)[C@H](OC(C)=O)[C@]4(CC)C=CCN5CC[C@]31[C@@H]54)C2	77.5 u/L
